System: P12-Ichikawa
Assay: cell viability relative to DMSO control; higher = less cytotoxic
Details: RPMI 5 mM glucose + 10% dialyzed FBS; 48 h; 0.19 µM
Assign labels as follows, please: true for cell viability below 90%; false for cell viability equal to or exceeding 90%.

Sample answers from the record:
CC1(C)CCC(=C(\C1)C2=CC=C(Cl)C=C2)/CN3CCN(CC3)C4=CC(=C(C=C4)C(=O)N[S+]([O-])(=O)C5=CC=C(NCC6CCOCC6)C(=C5)[N+]([O-])=O)OC7=CN=C8[NH]C=CC8=C7 :: false
Cc1ccnc(N[S+](=O)([O-])c2ccc(NC(=O)Nc3ccc([S+](=O)([O-])Nc4nccc(C)n4)cc3)cc2)n1 :: true
COc1cc2nc(N3CCN(C(=O)c4ccco4)CC3)nc(N)c2cc1OC :: true
COC1=C(CC=C(C)C)C2=C(\C=C/C(=O)O2)C=C1 :: false

Task: is_below(cell viability, 90%) for COc1cc([C@@H]2c3cc4c(cc3[C@H](O)[C@H]3COC(=O)[C@H]23)OCO4)cc(OC)c1OC ?
Result: true

Task: is_below(cell viability, 90%) for Cc1n[nH]c2ccc(-c3cncc(OC[C@@H](N)Cc4c[nH]c5ccccc45)c3)cc12 ?
Result: true

Task: is_below(cell viability, 90%) for Cc1cccc(Nc2nc(N[C@@H]3CCCC[C@@H]3N)ncc2C(N)=O)c1 ?
Result: false

Task: is_below(cell viability, 90%) for CCC1=C2CN3C(=O)\C4=C(/C=C3/C2=NC5=CC=C(O)C=C15)[C@@](O)(CC)C(=O)OC4 ?
Result: true

Task: is_below(cell viability, 90%) for CO[C@H]1C[C@H]2OC[C@@]2(OC(C)=O)[C@H]3[C@H](OC(=O)C4=CC=CC=C4)[C@]5(O)C[C@H](OC(=O)[C@H](O)[C@@H](NC(=O)OC(C)(C)C)C6=CC=CC=C6)/C(=C(/[C@@H](OC)C(=O)[C@]13C)C5(C)C)C ?
Result: true

Task: is_below(cell viability, 90%) for CN1CCN(c2cc(C(=O)Nc3ccc4c(c3)-c3c(c(C(N)=O)nn3-c3ccc(F)cc3)CC4)c(Cl)cn2)CC1 ?
Result: false

Task: is_below(cell viability, 90%) for NC/1=N/C(=O)C2=C([NH]C=C2CCC3=CC=C(C=C3)C(=O)N[C@@H](CCC(O)=O)C(O)=O)N1 ?
Result: false

Task: is_below(cell viability, 90%) for Cc1n[nH]c(C)c1Cc1sc2c(c1C(=O)N1C[C@H](O)CO1)c(=O)n(C)c(=O)n2CC(C)C ?
Result: false

###

Tested on: NOMO1
Assay: AUC of viability dose-response curve (% viability x log10 dose units); higher = less sensitive
Settings: RPMI 5 mM glucose + 10% dialyzed FBS; 48 h
RECORDED_METRIC: AUC of viability dose-response curve
Format: numeric value only, no unit, no commentary.

CC(=O)OCC(CCn1cnc2cnc(N)nc21)COC(C)=O :: 462
CC(C)C1=N[N](C\2=C1C(=O)N\C(=N2)CC3=CC=C(OCCO)C=C3)C4=C(Cl)C=CC=C4Cl :: 222
CC(C)C[C@H](NC(=O)c1cc2ccccc2s1)C(=O)N1CCN(C(=O)[C@H](CO)N[S+](=O)([O-])c2ccc(Cl)cc2Cl)CC1 :: 436

Task: # return recorded AUC of viability dose-response curve for entry CCNC(=O)c1noc(-c2cc(C(C)C)c(O)cc2O)c1-c1ccc(CN2CCOCC2)cc1
Result: 248

Task: # return recorded AUC of viability dose-response curve for entry NNC(=O)c1ccncc1
Result: 456

Task: # return recorded AUC of viability dose-response curve for entry C[C@]12CCC(=O)C(O)=C1CC[C@@H]1[C@@H]2CC[C@]2(C)C(=O)CC[C@@H]12
Result: 462

Task: # return recorded AUC of viability dose-response curve for entry COC1=CC2=C(C=C1CC3=C(F)C(=CC=C3)Cl)C(=O)\C(=C/N2[C@H](CO)C(C)C)C(O)=O
Result: 454

Task: # return recorded AUC of viability dose-response curve for entry COC(=O)[C@@H]1CC2=CC(=O)CC[C@]2(C)[C@@]23O[C@@H]2C[C@@]2(C)[C@@H](CC[C@@]24CCC(=O)O4)[C@H]13
Result: 450

Task: # return recorded AUC of viability dose-response curve for entry Cc1nc(C(=O)NCC(=O)O)c(O)c2ccc(Oc3ccccc3)cc12
Result: 466

Task: # return recorded AUC of viability dose-response curve for entry O=C(N[C@H]1CN2CCC1CC2)c1ccc(Cl)cc1
Result: 469

###

# cell viability listing for each entry below
Tested on: P12-Ichikawa
Assay: cell viability relative to DMSO control; higher = less cytotoxic
Conditions: HPLM + 10% dialyzed FBS; 48 h; 15.4 µM
// units = %; emit number, no label

CCCCCCCN(CC)CCCC(O)c1ccc(NS(C)(=O)=O)cc1.CCCCCCCN(CC)CCCC(O)c1ccc(NS(C)(=O)=O)cc1.O=C(O)/C=C/C(=O)O (stereo unspecified) :: 88.9
O=C(/C=C/c1cccnc1)NCCCCC1CCN(C(=O)c2ccccc2)CC1 :: 4
CN1\C(=C(O)/C2=C(C=C(Cl)S2)[S+]1([O-])=O)C(=O)NC3=NC=CC=C3 :: 104

Task: # return recorded cell viability for entry NC(=O)c1c(OCc2c(F)cc(Br)cc2F)nsc1NC(=O)NCCCCN1CCCC1
Result: 45.2

Task: # return recorded cell viability for entry OC[C@H]1O[C@H](C[C@@H]1O)N2\C=C(\I)C(=O)NC2=O
Result: 64.4

Task: # return recorded cell viability for entry CC[C@@H](C)[C@H](NC(=O)[C@H](CC1CCCCC1)NC(=O)c1ccno1)C(=O)N1CCC2(CCc3ccccc32)CC1
Result: 78.9

###

# cell viability listing for each entry below
Tested on: SEM cells
Assay: cell viability relative to DMSO control; higher = less cytotoxic
Details: RPMI 5 mM glucose + 10% dialyzed FBS; 48 h; 15.4 µM
// units = %; emit number, no label

Recorded cell viability, per entry:
Cc1ccc(C(N)=O)cc1Nc1nccc(-c2cn(C(C)C)c3cnccc23)n1 :: 34.8
CCc1nc(C(N)=O)c(Nc2ccc(N3CCC(N4CCN(C)CC4)CC3)c(OC)c2)nc1NC1CCOCC1 :: 18.3
CCN(CCO)CCCC(C)Nc1ccnc2cc(Cl)ccc12 (stereo not given) :: 52.1

Task: # return recorded cell viability for entry Cc1ccc(Nc2nccc(N(C)c3ccc4c(C)n(C)nc4c3)n2)cc1[S+](N)(=O)[O-]
Result: 49.2

Task: # return recorded cell viability for entry CC(C)C[C@@H](C(=O)N[C@H](C(=O)OC1CCCC1)c1ccccc1)[C@H](O)C(=O)NO
Result: 65.9

###

Tested on: NOMO1
Test: cell viability relative to DMSO control; higher = less cytotoxic
Details: HPLM + 10% dialyzed FBS; 48 h; 0.569 µM
# cell viability listing for each entry below
// units = %; emit number, no label

Task: # return recorded cell viability for entry N#C[C@@H]1C[C@@H]2C[C@@H]2N1C(=O)[C@@H](N)C12CC3CC(CC(O)(C3)C1)C2
Result: 127

Task: # return recorded cell viability for entry Cc1cccc(Nc2nc(N[C@@H]3CCCC[C@@H]3N)ncc2C(N)=O)c1
Result: 110

Task: # return recorded cell viability for entry CCNC(=O)c1noc(-c2cc(C(C)C)c(O)cc2O)c1-c1ccc(CN2CCOCC2)cc1
Result: 24.1

Task: # return recorded cell viability for entry CN1\C(=C(O)/C2=C(C=C(Cl)S2)[S+]1([O-])=O)C(=O)NC3=NC=CC=C3
Result: 132

Task: # return recorded cell viability for entry CO[C@H]1C[C@H]2OC[C@@]2(OC(C)=O)[C@H]3[C@H](OC(=O)C4=CC=CC=C4)[C@]5(O)C[C@H](OC(=O)[C@H](O)[C@@H](NC(=O)OC(C)(C)C)C6=CC=CC=C6)/C(=C(/[C@@H](OC)C(=O)[C@]13C)C5(C)C)C
Result: 19.3

###

# cell viability listing for each entry below
Tested on: P12-Ichikawa
Test: cell viability relative to DMSO control; higher = less cytotoxic
Settings: RPMI 5 mM glucose + 10% dialyzed FBS; 48 h; 0.000781 µM
// units = %; emit number, no label

Recorded cell viability, per entry:
Cc1cccc(Nc2nc(N[C@@H]3CCCC[C@@H]3N)ncc2C(N)=O)c1 :: 103
NC(=O)c1c(OCc2c(F)cc(Br)cc2F)nsc1NC(=O)NCCCCN1CCCC1 :: 123
CCOC(=O)c1c(/C(C#N)=C\N)c2ccc(Cl)c(Cl)c2n1C :: 84.5
O=C(c1ccc(C(=O)N2CCC(N3CCCC3)CC2)c(Nc2ccccc2)c1)N1CCC(N2CCCC2)CC1 :: 98.3
CCc1nc(C(N)=O)c(Nc2ccc(N3CCC(N4CCN(C)CC4)CC3)c(OC)c2)nc1NC1CCOCC1 :: 110

Task: # return recorded cell viability for entry CC/C(=C(\c1ccccc1)c1ccc(OCCN(C)C)cc1)c1ccccc1
Result: 113

Task: # return recorded cell viability for entry COc1cc2nc(N3CCN(C(=O)c4ccco4)CC3)nc(N)c2cc1OC
Result: 77.1

Task: # return recorded cell viability for entry CC(=O)OCC(CCn1cnc2cnc(N)nc21)COC(C)=O
Result: 92.5
